# assayed target: Human membrane-bound BAFF (mbBAFF) (human, UniProt Q9Y275 1-285)
# experimental details: cell-based or functional assay
metric name: Potent mbBAFF Neutralization IC90 (nM)
Answer format: numeric, nM implied, no suffix.

Given the binder 1002E8A6 (antibody, V domains shown) VH: EVQLQQSGPELVKPGASVKMSCKASGYTITSYVMHWVKQKPGQGLEWIGYINPNNDGTKYNEKFKGKATLTSDKSSNTAYMELSSLTSEDSAVYYCARGDYSNYFYWYFDVWGAGTTVTVSS VL: DIKMTQSPSSMYASLGERVTITCKASQDINSYLTWFQQKPGKSPETLIYRANRLVSGVPSRFSGSGSGQDYSLTISSLEYEDMGIYSCLQYDEFPYTFGGGTKLEIK , what is its reported Potent mbBAFF Neutralization IC90?
2.09
